- measurement.target: HLA-B*39:01
- assay: IEDB peptide-MHC binding, purified MHC/competitive/fluorescence; filed as Kd, often an IC50 or EC50 that approximates it; bounds were set here for any values at or beyond the usual limits of such assays
- condition.description: source organism: Listeria monocytogenes serotype 4b str. H7858
readout.kind: Kd

Record request: Kd value, item `ITWPRTRHW`
≥ 20 µM

###

- measurement.target: HLA-A*68:01
- assay: IEDB peptide-MHC binding, purified MHC/competitive/radioactivity; filed as Kd, often an IC50 or EC50 that approximates it; bounds were set here for any values at or beyond the usual limits of such assays
- condition.description: source organism: Triticum aestivum
readout.kind: Kd

Record request: Kd value, item `VVLQQHNIVH`
≥ 29.6 µM

The origin of these recorded values is the Immune Epitope Database (IEDB).
